system-name: MAP kinase-activated protein kinase 2 (Homo sapiens)
Sequence (P49137 whole entry): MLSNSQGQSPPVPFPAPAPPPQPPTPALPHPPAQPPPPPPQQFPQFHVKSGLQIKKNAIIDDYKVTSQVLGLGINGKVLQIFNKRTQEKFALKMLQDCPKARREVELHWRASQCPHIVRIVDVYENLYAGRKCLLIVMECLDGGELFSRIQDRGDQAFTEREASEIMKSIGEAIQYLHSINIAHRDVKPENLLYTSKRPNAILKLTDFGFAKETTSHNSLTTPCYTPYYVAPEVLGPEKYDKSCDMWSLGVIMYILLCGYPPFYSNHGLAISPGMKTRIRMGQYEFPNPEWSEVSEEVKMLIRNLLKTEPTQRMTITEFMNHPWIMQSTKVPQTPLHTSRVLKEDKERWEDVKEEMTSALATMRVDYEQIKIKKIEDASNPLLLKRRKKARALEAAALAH
assay-details: Inhibition of MK2 using biotin-LCAYSRALSRQLSSGVSEIRH substrate
pIC50: −log10 of the molar value.
readout: pIC50

Cc1cccc(NC(=S)NCc2nc(Cl)cnc2N)c1
5.03
Nc1ncc(Cl)nc1CNC(=S)Nc1cccc(Cl)c1
4.95
Nc1ncc(Cl)nc1CNC(=S)Nc1ccccc1Cl
5.96
Cc1cnc(N)c(CNC(=S)Nc2ccc(NC(=O)Oc3ccccc3)cc2)n1
6.14

(P) Nc1ncc(Cl)nc1CNC(=S)Nc1ccc(Cl)cc1Cl
(Q) Nc1ncc(Cl)nc1CNC(=S)Nc1cc(Cl)cc(Cl)c1
(R) CC(C)(C)NC(=S)NCc1nc(Cl)cnc1N
(S) Nc1ncc(Cl)nc1CNC(=S)NC1CCCC1
**Query** In this exercise, place the 4 molecules in ascending sequence of their recorded pIC50. Enter labels, ranked according to the request.
**Result** S, Q, P, R
(S: 4.28, Q: 4.57, P: 5.37, R: 5.60)

====

system-name: MAP kinase-activated protein kinase 2 (Homo sapiens)
assay-details: Inhibition of MK2 using biotin-LCAYSRALSRQLSSGVSEIRH substrate
pIC50: −log10 of the molar value.
readout: pIC50

Previously resolved entries follow.
CCOc1nc(N)c(CNC(=S)Nc2ccccc2)nc1Cl
< 4.30
Nc1ncc(Cl)nc1CNC(=S)Nc1cccc2ccccc12
5.49
Cc1cnc(N)c(CNC(=S)Nc2ccc3c(c2)[nH]c(=O)n3C)n1
< 4.70

Could you now look at the following molecule, please?
**Query** Report measured pIC50; entry is Nc1ncc(Cl)nc1CNC(=S)Nc1ccc(-n2cnnn2)cc1
**Result** < 4.40
